Measured values drawn from patent US5698522A for this set.

Molecular target: LHRH receptor (Rattus norvegicus)
Construct: endogenous in cells
Sequence (P30969 whole entry): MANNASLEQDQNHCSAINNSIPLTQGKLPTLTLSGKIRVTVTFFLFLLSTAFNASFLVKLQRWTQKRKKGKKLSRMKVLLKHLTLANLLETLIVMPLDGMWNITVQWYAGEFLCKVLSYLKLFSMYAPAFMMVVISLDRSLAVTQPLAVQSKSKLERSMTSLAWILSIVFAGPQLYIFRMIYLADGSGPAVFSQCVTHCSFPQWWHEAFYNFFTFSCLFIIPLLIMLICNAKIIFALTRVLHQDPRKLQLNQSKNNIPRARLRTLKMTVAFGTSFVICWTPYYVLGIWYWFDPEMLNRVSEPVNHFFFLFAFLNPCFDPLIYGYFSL
Experiment: in vitro LHRH antagonist potency (pA2) against the agonist leuprolide
Assay type: cell-based
Details: negative logarithm of the antagonist concentration which shifts the response curve produced by the agonist leuprolide to two-fold higher concentration
Where a SMILES comes first, the peptide text is derived from it. Side-chain parts run from the residue outwards. [ ]: non-standard residue; d: D form. The star is where a group is joined. Shikimoyl = O=C(C1=C[C@@H](O)[C@@H](O)[C@H](O)C1)*; dPhe(4-Cl) = N[C@H](Cc1ccc(Cl)cc1)C(=O)O; d2Nal = N[C@H](Cc1ccc2ccccc2c1)C(=O)O; Lys(iPr) = CC(C)NCCCC[C@H](N)C(=O)O; NMeY = CN[C@@H](Cc1ccc(O)cc1)C(=O)O; d3Pal = N[C@H](Cc1cccnc1)C(=O)O; Nicotinoyl = O=C(c1cccnc1)*; Ahx = NCCCCCC(=O)O; GABA = NCCCC(=O)O; azaGly = NNC(=O)O; Sar = CNCC(=O)O
metric name: Kb (nM)
Numeric answer only, unit nM assumed.

Problem: Return the recorded Kb value; entry: CC(=O)N[C@H](Cc1ccc2ccccc2c1)C(=O)N[C@H](Cc1ccc(Cl)cc1)C(=O)N[C@H](Cc1cccnc1)C(=O)N[C@@H](CO)C(=O)N(C)[C@@H](Cc1ccc(O)cc1)C(=O)N[C@H](CCCCNC(=O)CN(C)C(=O)c1cccnc1)C(=O)N[C@@H](CC(C)C)C(=O)N[C@@H](CCCCNC(C)C)C(=O)N1CCC[C@H]1C(=O)N[C@H](C)C(N)=O [Example 4d] (Ac-[d2Nal][dPhe(4-Cl)][d3Pal]S[NMeY][dK]([Sar-Nicotinoyl])L[Lys(iPr)]P[dA]-NH2)
Result: 0.0138

Problem: Return the recorded Kb value; entry: CC(=O)N[C@H](Cc1ccc2ccccc2c1)C(=O)N[C@H](Cc1ccc(Cl)cc1)C(=O)N[C@H](Cc1cccnc1)C(=O)N[C@@H](CO)C(=O)N(C)[C@@H](Cc1ccc(O)cc1)C(=O)N[C@H](CCCCNC(=O)CCCNC(=O)NNC(=O)c1cccnc1)C(=O)N[C@@H](CC(C)C)C(=O)N[C@@H](CCCCNC(C)C)C(=O)N1CCC[C@H]1C(=O)N[C@H](C)C(N)=O [Example 25b] (Ac-[d2Nal][dPhe(4-Cl)][d3Pal]S[NMeY][dK]([GABA-azaGly-Nicotinoyl])L[Lys(iPr)]P[dA]-NH2)
Result: 0.0407

Problem: Return the recorded Kb value; entry: CC(=O)N[C@H](Cc1ccc2ccccc2c1)C(=O)N[C@H](Cc1ccc(Cl)cc1)C(=O)N[C@H](Cc1cccnc1)C(=O)N[C@@H](CO)C(=O)N(C)[C@@H](Cc1ccc(O)cc1)C(=O)N[C@H](CCCCNC(=O)CCCCCNC(=O)c1cccnc1)C(=O)N[C@@H](CC(C)C)C(=O)N[C@@H](CCCCNC(C)C)C(=O)N1CCC[C@H]1C(=O)N[C@H](C)C(N)=O [Example 4e] (Ac-[d2Nal][dPhe(4-Cl)][d3Pal]S[NMeY][dK]([Ahx-Nicotinoyl])L[Lys(iPr)]P[dA]-NH2)
Result: 0.0339

Problem: Return the recorded Kb value; entry: CC(=O)N[C@H](Cc1ccc2ccccc2c1)C(=O)N[C@H](Cc1ccc(Cl)cc1)C(=O)N[C@H](Cc1cccnc1)C(=O)N[C@@H](CO)C(=O)N(C)[C@@H](Cc1ccc(O)cc1)C(=O)N[C@H](CCCCNC(=O)[C@@H](C)NC(=O)C1=C[C@@H](O)[C@@H](O)[C@H](O)C1)C(=O)N[C@@H](CC(C)C)C(=O)N[C@@H](CCCNC(=N)N)C(=O)N1CCC[C@H]1C(=O)N[C@H](C)C(N)=O [Example 38a] (Ac-[d2Nal][dPhe(4-Cl)][d3Pal]S[NMeY][dK]([dA-Shikimoyl])LRP[dA]-NH2)
Result: 0.0282

Problem: Return the recorded Kb value; entry: CC(=O)N[C@H](Cc1ccc2ccccc2c1)C(=O)N[C@H](Cc1ccc(Cl)cc1)C(=O)N[C@H](Cc1cccnc1)C(=O)N[C@@H](CO)C(=O)N(C)[C@@H](Cc1ccc(O)cc1)C(=O)N[C@H](CCCCNC(=O)CNC(=O)c1cccnc1)C(=O)N[C@@H](CC(C)C)C(=O)N[C@@H](CCCCNC(C)C)C(=O)N1CCC[C@H]1C(=O)N[C@H](C)C(N)=O [Example 1] (Ac-[d2Nal][dPhe(4-Cl)][d3Pal]S[NMeY][dK]([Gly-Nicotinoyl])L[Lys(iPr)]P[dA]-NH2)
Result: 0.00355
